Tested on: AS-HBE cells
assay-procedure: Short-circuit current in AS-HBE cells (Test Example 3)
Type: cell-based, human
measurement-context: 250 nM
Can you tell me Changes in short-circuit currents (Δlsc) for the items I'm about to list?
Write the quantity with the unit trailing the number.

// query Could you tell me which Changes in short-circuit currents (Δlsc) is on file for CCCCC[C@H](O)/C=C/[C@@H]1[C@H]2C/C(=C/CCCC(=O)[O-])O[C@H]2C[C@H]1O.[Na+] [Compound 7, PGI2-Na, reference compound] ?
// result 1.0 μA/cm^2

// query Please answer likewise for CCCCCCC(F)(F)C1(O)CC[C@H]2[C@@H](CC(=O)[C@@H]2CCCCCCCCC(=O)OC(C)C)O1 (stereo partly shown)
// result 0.3 μA/cm^2

// query Also, CCCCC(F)(F)[C@@]1(O)CC[C@H]2[C@@H](CC(=O)[C@@H]2CCCCCCC(=O)O)O1 please.
// result 4.3 μA/cm^2

// query Can you handle CC[C@H](C)CC(F)(F)C(=O)CC[C@H]1[C@H](O)CC(=O)[C@@H]1CCCCCCC(=O)O next?
// result 9.0 μA/cm^2

// query One more compound: CCCCC(F)(F)C(=O)/C=C/[C@H]1[C@H](O)CC(=O)[C@@H]1CCCCCCC(=O)O
// result 1.0 μA/cm^2

Required: Changes in short-circuit currents (Δlsc), one value per compound below.
1. CCCCC(F)(F)C1(O)CC[C@H]2[C@@H](CC(=O)[C@@H]2CCCCCCC(=O)NCC)O1 (stereo partly shown)
2. CCCCC[C@H](O)/C=C/[C@@H]1[C@@H](C/C=C\CCCC(=O)O)[C@@H](O)C[C@H]1O [Compound 6, PGF2α, reference compound]

// result
1: 2.7 μA/cm^2; 2: 0.7 μA/cm^2

Origin of values: patent US7253295B2
